# Tested on: CAL-85-1
# TEST_DETAILS: normalised response (% of control), CellTiter-Glo; higher = more viable cells (100 = DMSO, 0 = benzethonium chloride kill control)
# CONDITION_INFO: incubation time: 72 h
Measured normalised response of individual entries
Answer with a number only, understood to be in %.

These recorded examples may help you get a feel for the data.
INSERT INTO assay_data (molecule, measurement_target, measurement_units, reported_result) VALUES
  ('CN(C)C(=N)NC(=N)N [Metformin] (1000 nM)', 'CAL-85-1', '%', 97.7),
  ('C=CCn1c(=O)c2cnc(Nc3ccc(N4CCN(C)CC4)cc3)nc2n1-c1cccc(C(C)(C)O)n1 [MK1775] (100 nM)', 'CAL-85-1', '%', 90.3),
  ('CC(C)(C)NC(=O)[C@H]1CC[C@H]2[C@@H]3CC[C@H]4NC(=O)C=C[C@]4(C)[C@H]3CC[C@]12C [Finasteride] (100 nM)', 'CAL-85-1', '%', 98.5);

Below: the item to evaluate.
Form: item O=C(O)CNC(=O)c1c(O)c2ccccc2n(Cc2ccccc2)c1=O [IOX-2] (500 nM) ; test system CAL-85-1; normalised response: 99

====

Measured drug sensitivity score of individual entries
# Tested on: MDA-MB-453
# TEST_DETAILS: drug sensitivity score (DSS), CellTiter-Glo (DSS (AUC-based score)); higher = stronger drug effect (viability inhibition or cytotoxicity); extreme values may be limits of the assay
# CONDITION_INFO: incubation time: 72 h
Simply state the number, no unit and no words.

INSERT INTO assay_data (molecule, endpoint_label, reported_result) VALUES
  ('C=CCn1c(=O)c2cnc(Nc3ccc(N4CCN(C)CC4)cc3)nc2n1-c1cccc(C(C)(C)O)n1', 'drug sensitivity score', 14.6),
  ('Cn1cc(C2=C(c3cn(C4CCN(Cc5ccccn5)CC4)c4ccccc34)C(=O)NC2=O)c2ccccc21', 'drug sensitivity score', 0),
  ('Cc1cn(-c2cc(NC(=O)c3ccc(C)c(Nc4nccc(-c5cccnc5)n4)c3)cc(C(F)(F)F)c2)cn1', 'drug sensitivity score', 0),
  ('CC1(C)CCC(c2ccc(Cl)cc2)=C(CN2CCN(c3ccc(C(=O)NS(=O)(=O)c4ccc(N[C@H](CCN5CCOCC5)CSc5ccccc5)c(S(=O)(=O)C(F)(F)F)c4)cc3)CC2)C1', 'drug sensitivity score', 3.71),
  ('CCNC(=O)CCC/C=C\C[C@@H]1[C@@H](/C=C/[C@@H](O)CCc2ccccc2)[C@H](O)C[C@@H]1O', 'drug sensitivity score', 0),
  ('Cc1nc(C(=O)NCC(=O)O)c(O)c2ccc(Oc3ccccc3)cc12', 'drug sensitivity score', 0);

CC(C)n1cnc2c(NCCc3ccc(O)cc3)nc(-c3csc4ccccc34)nc21 has a reported drug sensitivity score of 0.255

CC(C)(C)NC(=O)[C@H]1CC[C@H]2[C@@H]3CC[C@H]4NC(=O)C=C[C@]4(C)[C@H]3CC[C@]12C [Finasteride] has a reported drug sensitivity score of 0

CC(O)(CS(=O)(=O)c1ccc(F)cc1)C(=O)Nc1ccc(C#N)c(C(F)(F)F)c1 (centres undefined) [Bicalutamide] has a reported drug sensitivity score of 0.186

====

# System: DU-4475
# TEST_DETAILS: normalised viability (% of control), CellTiter-Blue; higher = more viable cells (100 = DMSO, 0 = benzethonium chloride kill control)
# CONDITION_INFO: incubation time: 72 h
Measured normalised viability of individual entries
Answer with a number only, understood to be in %.

These recorded examples may help you get a feel for the data.
INSERT INTO results (compound, reported_result) VALUES
  ('CCN(CC)CCCC(C)Nc1ccnc2cc(Cl)ccc12 (stereo not drawn) [Chloroquine] (0.099 nM)', 111),
  ('C=CCn1c(=O)c2cnc(Nc3ccc(N4CCN(C)CC4)cc3)nc2n1-c1cccc(C(C)(C)O)n1 [MK1775] (1 nM)', 86.6);

Below: the item to evaluate.
C=CCN(/C=C1/C(=O)O[C@H](COC)[C@@]2(C)C1=C(O)C(=O)C1=C2[C@H](OC(C)=O)C[C@]2(C)C(=O)CC[C@@H]12)CC=C [PX-866] (1 nM) has a reported normalised viability of 118

====

Measured normalised viability of individual entries
# Test system: CAL-51
# TEST_DETAILS: normalised viability (% of control), CellTiter-Blue; higher = more viable cells (about 100 = DMSO control)
# CONDITION_INFO: 100 nM; incubation time: 72 h
Answer with a number only, understood to be in %.

These recorded examples may help you get a feel for the data.
INSERT INTO assay_data (compound, reported_result) VALUES
  ('C=CCn1c(=O)c2cnc(Nc3ccc(N4CCN(C)CC4)cc3)nc2n1-c1cccc(C(C)(C)O)n1', 87),
  ('CC(C)C[C@H](NC(=O)[C@@H](COC(C)(C)C)NC(=O)[C@H](Cc1ccc(O)cc1)NC(=O)[C@H](CO)NC(=O)[C@H](Cc1c[nH]c2ccccc12)NC(=O)[C@H](Cc1cnc[nH]1)NC(=O)[C@@H]1CCC(=O)N1)C(=O)N[C@@H](CCCNC(=N)N)C(=O)N1CCC[C@H]1C(=O)NNC(N)=O', 105);

Below: the item to evaluate.
CN(Cc1cnc2nc(N)nc(N)c2n1)c1ccc(C(=O)N[C@@H](CCC(=O)O)C(=O)O)cc1 [Methotrexate] has a reported normalised viability of 62.6

====

# Tested on: CAL-51
# TEST_DETAILS: normalised viability (% of control), CellTiter-Blue; higher = more viable cells (about 100 = DMSO control)
# CONDITION_INFO: incubation time: 72 h
For each record, check the reported normalised viability: if it is below 10% write YES, else write NO.

INSERT INTO measurements (compound, measurement_target, group_label) VALUES
  ('CCNC(=O)CCC/C=C\C[C@@H]1[C@@H](/C=C/[C@@H](O)CCc2ccccc2)[C@H](O)C[C@@H]1O [Bimatoprost] (5500 nM)', 'CAL-51', 'NO'),
  ('Cc1cc(Nc2nc(N[C@@H](C)c3ncc(F)cn3)ncc2Cl)[nH]n1 [AZD1480] (1000 nM)', 'CAL-51', 'NO'),
  ('CC(O)(CS(=O)(=O)c1ccc(F)cc1)C(=O)Nc1ccc(C#N)c(C(F)(F)F)c1 (stereo unspecified) [Bicalutamide] (10000 nM)', 'CAL-51', 'NO'),
  ('CO[C@@H]1[C@H](N(C)C(=O)c2ccccc2)C[C@H]2O[C@]1(C)n1c3ccccc3c3c4c(c5c6ccccc6n2c5c31)C(=O)NC4 [Midostaurin] (10000 nM)', 'CAL-51', 'YES'),
  ('COc1cc(Nc2c(C#N)cnc3cc(OCCCN4CCN(C)CC4)c(OC)cc23)c(Cl)cc1Cl [Bosutinib] (10000 nM)', 'CAL-51', 'NO');

Switching to the query record.
Req: Strictly below 10% in normalised viability? Nc1ccn([C@@H]2O[C@H](CO)[C@@H](O)C2(F)F)c(=O)n1 [Gemcitabine] (1000 nM)
Resp: YES

====

Measured drug sensitivity score of individual entries
# Tested on: BT-474
# TEST_DETAILS: drug sensitivity score (DSS), CellTiter-Glo (DSS (AUC-based score)); higher = stronger drug effect (viability inhibition or cytotoxicity); extreme values may be limits of the assay
# CONDITION_INFO: incubation time: 72 h
Simply state the number, no unit and no words.

These recorded examples may help you get a feel for the data.
INSERT INTO assay_data (molecule, reported_result) VALUES
  ('Nc1ccn([C@@H]2O[C@H](CO)[C@@H](O)C2(F)F)c(=O)n1', 3.22),
  ('CCNC(=O)c1noc(-c2cc(C(C)C)c(O)cc2O)c1-c1ccc(CN2CCOCC2)cc1', 13),
  ('O=[N+]([O-])c1ccc2c(c1)S(=O)(=O)C=C2', 9.26),
  ('Cc1cc(Nc2nc(N[C@@H](C)c3ncc(F)cn3)ncc2Cl)[nH]n1', 0),
  ('Cn1cc(C2=C(c3cn(C4CCN(Cc5ccccn5)CC4)c4ccccc34)C(=O)NC2=O)c2ccccc21', 0);

CCN(CC)CCCC(C)Nc1ccnc2cc(Cl)ccc12 (configuration not stated) has a reported drug sensitivity score of 9.59

CO[C@@]12[C@H](COC(N)=O)C3=C(C(=O)C(C)=C(N)C3=O)N1C[C@@H]1N[C@@H]12 has a reported drug sensitivity score of 0

====

# System: CAL-148
# TEST_DETAILS: normalised response (% of control), CellTiter-Glo; higher = more viable cells (100 = DMSO, 0 = benzethonium chloride kill control)
# CONDITION_INFO: incubation time: 72 h
ENDPOINT_LABEL: normalised response (%)
Answer with a number only, understood to be in %.

C=CCn1c(=O)c2cnc(Nc3ccc(N4CCN(C)CC4)cc3)nc2n1-c1cccc(C(C)(C)O)n1 [MK1775] (100 nM) has a reported normalised response of 73.4

O=C(CCCCCCC(=O)Nc1ccccc1)NO [Vorinostat] (100 nM) has a reported normalised response of 108

CN[C@@H](C)C(=O)N[C@H]1CN(C(=O)CC(C)C)CC[C@H]2CC[C@@H](C(=O)NC(c3ccccc3)c3ccccc3)N2C1=O [AT-406] (100 nM) has a reported normalised response of 102

Cn1cc(C2=C(c3cn(C4CCN(Cc5ccccn5)CC4)c4ccccc34)C(=O)NC2=O)c2ccccc21 [Enzastaurin] (100 nM) has a reported normalised response of 106

CC(C)(C)NC(=O)[C@H]1CC[C@H]2[C@@H]3CC[C@H]4NC(=O)C=C[C@]4(C)[C@H]3CC[C@]12C [Finasteride] (100 nM) has a reported normalised response of 108

Cc1nc(C(=O)NCC(=O)O)c(O)c2ccc(Oc3ccccc3)cc12 [FG-4592] (100 nM) has a reported normalised response of 108

CC1(COc2ccc3c(c2)ncn3-c2ccc3cccc(N4CCC(N)CC4)c3n2)COC1 [Crenolanib] (100 nM) has a reported normalised response of 107

CN(Cc1cnc2nc(N)nc(N)c2n1)c1ccc(C(=O)N[C@@H](CCC(=O)O)C(=O)O)cc1 [Methotrexate] (500 nM) has a reported normalised response of 106

CC[C@H](CO)Nc1nc(NCc2ccccc2)c2ncn(C(C)C)c2n1 [Seliciclib] (100 nM) has a reported normalised response of 112
